Tested on: A549 NSCLC
Assay: NCI tumour cell line growth inhibition, 48 h
Catalogue of TGI readings, one per entry.

Some compounds with known TGI results, for comparison:
{"compound": "Cn1c(=O)c(Cc2ccccc2F)cc2cnc(NC3CCOCC3)nc21", "TGI": "> 25 µM"}
{"compound": "O=C(O)c1ccc(OCc2nc3cc(C(F)(F)F)ccc3nc2-c2ccccc2)cc1", "TGI": "> 100 µM"}
{"compound": "O=C1CSC(/C(=N/Nc2ccccc2)c2nc3ccccc3[nH]2)=N1", "TGI": "> 100 µM"}
{"compound": "C=CC[C@]12C=C(OC)[C@@H](O)[C@](OC)(C(c3cc(OC)c4c(c3)OCO4)[C@H]1C)[C@H]2OC(C)=O (stereo partly specified)", "TGI": "> 100 µM"}
{"compound": "Cc1cc(NCc2ccccc2)c2ccccc2[n+]1CCCCCCCCCC[n+]1c(C)cc(NCc2ccccc2)c2ccccc21", "TGI": "4.39 µM"}

Asked: Find the measured TGI of Cc1nc2sc3ccccc3n2c(=O)c1N=Nc1ccc(Cl)cc1 with A549 NSCLC as test system.
Given back: > 100 µM

Asked: With A549 NSCLC as the test system, provide measured TGI for this compound: O=C(CN(c1ccccc1)c1ccccc1)n1nnc2ccccc21
Given back: > 100 µM

Asked: Specify the recorded TGI for CC(C)(C)C(=O)CC1=Nc2ccccc2SC1(O)CC(=O)C(C)(C)C (stereo unspecified) , system: A549 NSCLC.
Given back: 51 µM

Asked: Find the measured TGI of CC(C)(C)c1cc(C(O)(C(F)(F)F)C(F)(F)F)c2c(c1)C(C(F)(F)F)(C(F)(F)F)OC(C(C)(C)C)N2 (stereo unspecified) with A549 NSCLC as test system.
Given back: 13.6 µM

Asked: Find the measured TGI of C[C@H](O)C(=O)N1CCC(CCn2c(Sc3cc4c(cc3Br)OCO4)nc3c(N)ncnc32)CC1 with A549 NSCLC as test system.
Given back: > 100 µM
